test system: mononuclear cells from AML patient samples; experiment: Cell viability assay (Sytox blue flow cytometry) in primary AML samples; format: cell-based, human; conditions: Patient AML AH6229985, 48 hours; combination at 1:1 ratio; read-out: 50% lethal concentration (LC50)

compound: Cc1c(-c2c(-c3ccc(F)o3)sc3ncnc(O[C@H](Cc4ccccc4OCc4ccnn4CC(F)(F)F)C(=O)O)c23)ccc(OCCN2CCN(C)CC2)c1Cl [Compound 2]
measurement target: mononuclear cells from AML patient samples
CC50: 4.83 nM

* * *

tested on: mononuclear cells from AML patient samples; experiment: Cell viability assay (Sytox blue flow cytometry) in primary AML samples; type: cell-based, human; conditions: Patient AML AH6210946, 48 hours; combination at 1:1 ratio; read-out: 50% lethal concentration (LC50)

chem smiles: Cc1c(-c2c(-c3ccc(F)o3)sc3ncnc(O[C@H](Cc4ccccc4OCc4ccnn4CC(F)(F)F)C(=O)O)c23)ccc(OCCN2CCN(C)CC2)c1Cl
measurement units: nM
CC50: 55.6
